A collection of molecules and their measured electrical conductivity
SETTINGS: 378.15 K; 101.33 kPa; Liquid; Alternating current cell with electrodes
MEASUREMENT NAME: electrical conductivity (S/m)

1) CC[S+](CC)CC.O=S(=O)([N-]S(=O)(=O)C(F)(F)F)C(F)(F)F [triethylsulfonium bis((trifluoromethyl)sulfonyl)imide]; 3.92
2) CCCCCCCC[N+](C)(CCCCCCCC)CCCCCCCC.O=C([O-])C(F)(F)F [methyltrioctylammonium trifluoroacetate]; 0.0924
3) CCCC[N+]1(C)CCCC1.N#CN=C=[N-] [1-butyl-1-methylpyrrolidinium dicyanamide]; 6.11
4) CC[S+](C)CC.O=S(=O)([N-]S(=O)(=O)C(F)(F)F)C(F)(F)F [diethylmethylsulfonium bis[(trifluoromethyl)sulfonyl]imide]; 3.89
5) CCCC[n+]1ccccc1.O=S(=O)([N-]S(=O)(=O)C(F)(F)F)C(F)(F)F [1-butylpyridinium bis[(trifluoromethyl)sulfonyl]imide]; 2.54
